Listed compounds paired with reported logD
# RUN DESCRIPTION: Distribution coefficient, logD of the compound at pH 7.4
# Format: physicochemical
# ASSAY SETUP: octanol/water
MEASURED ENDPOINT: logD

[[record]]
smiles_entry = "Cc1ccc(C(=O)NC2CC2)cc1-n1ccnc(NCc2ccccc2)c1=O"
observed_result = 2.6

[[record]]
smiles_entry = "Cc1ccc(C(=O)NC2CC2)cc1-n1ccnc(N[C@@H](c2ccccc2)[C@@H](C)CN2CCOCC2)c1=O"
observed_result = 3.5

[[record]]
smiles_entry = "COc1ccc(CNc2nccn(-c3cc(C(=O)NC4CC4)ccc3C)c2=O)cc1"
observed_result = 2.9


All figures here come from ChEMBL document CHEMBL4725297.
